# test-target: gpH1R (ileum) (Cavia porcellus, UniProt P31389)
# Sequence (P31389 whole entry): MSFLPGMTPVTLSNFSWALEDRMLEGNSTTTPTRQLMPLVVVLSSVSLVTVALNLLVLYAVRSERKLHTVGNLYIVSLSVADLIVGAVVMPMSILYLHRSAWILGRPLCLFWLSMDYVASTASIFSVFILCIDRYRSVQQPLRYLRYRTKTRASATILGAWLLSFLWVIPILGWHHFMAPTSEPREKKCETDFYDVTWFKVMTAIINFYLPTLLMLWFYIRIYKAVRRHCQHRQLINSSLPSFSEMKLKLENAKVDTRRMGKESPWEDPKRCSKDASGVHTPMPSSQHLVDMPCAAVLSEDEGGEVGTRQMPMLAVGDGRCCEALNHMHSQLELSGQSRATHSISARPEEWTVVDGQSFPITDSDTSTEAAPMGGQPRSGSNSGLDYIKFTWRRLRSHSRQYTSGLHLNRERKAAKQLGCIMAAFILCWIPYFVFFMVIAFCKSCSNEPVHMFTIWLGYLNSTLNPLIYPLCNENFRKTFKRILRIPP
# measurement-protocol: Organ bath study on isolated guinea pig ileum
quantity-name: Kb (µM)

Below: 6 compounds and their reported Kb.
{"smiles-notation": "N=C(N)NCCCCCCCCCCCCNC(=N)NCCCc1cnc(N)s1", "Kb (µM)": 0.00871}
{"smiles-notation": "Cc1nc(N)sc1CCCNC(=N)NCCCCCCCCCCCCN", "Kb (µM)": 0.0708}
{"smiles-notation": "N=C(NCCCCCCCCCCCCN)NCCCc1cnc(N)s1", "Kb (µM)": 0.00933}
{"smiles-notation": "N=C(NCCCCCCCCCCNC(N)=O)NCCCc1c[nH]cn1", "Kb (µM)": 1}
{"smiles-notation": "N=C(NCCCCCCN)NCCCc1c[nH]cn1", "Kb (µM)": 6.31}
{"smiles-notation": "N=C(NCCCNC(N)=O)NCCCc1c[nH]cn1", "Kb (µM)": 9.12}

a = N=C(NCCCCCCCCNC(N)=O)NCCCc1c[nH]cn1
b = N=C(NCCCN)NCCCc1c[nH]cn1
Exam item: Pick one: a or b . Which one has the lower reported Kb? State your choice using its label.
Marked response: a

---

# test-target: gpH1R (ileum) (Cavia porcellus, UniProt P31389)
# measurement-protocol: Organ bath study on isolated guinea pig ileum
quantity-name: Kb (nM)

{"smiles-notation": "N=C(N)NCCCCCCNC(=N)NCCCc1c[nH]cn1", "quantity-name": "Kb", "reported-measurement": 933}
{"smiles-notation": "Cc1nc(N)sc1CCCNC(=N)NCCCCCCCCCCCCNC(=N)N", "quantity-name": "Kb", "reported-measurement": 174}
{"smiles-notation": "N=C(N)NCCCCCCCCNC(=N)NCCCc1cnc(N)s1", "quantity-name": "Kb", "reported-measurement": 50.1}
{"smiles-notation": "N=C(N)NCCCCCCCCNC(=N)NCCCc1c[nH]cn1", "quantity-name": "Kb", "reported-measurement": 1620}

1 = N=C(NCCCCCCCCCCCCN)NCCCc1c[nH]cn1
2 = N=C(N)NCCCCCCCCCCNC(=N)NCCCc1c[nH]cn1
3 = N=C(NCCCCNC(N)=O)NCCCc1c[nH]cn1
4 = N=C(N)NCCCCCCCCCCCCNC(=N)NCCCc1c[nH]cn1
Exam item: Reorder: Kb, max to min. The response must list the labels following the requested ordering.
Marked response: 3, 2, 1, 4

1 = N=C(NCCCCCCCCCCN)NCCCc1c[nH]cn1
2 = N=C(NCCCCN)NCCCc1c[nH]cn1
Exam item: Pick one: 1 or 2 . Which one has the lower reported Kb? State your choice using its label.
Marked response: 1

P = N=C(NCCCCCCNC(N)=O)NCCCc1c[nH]cn1
Q = CSC(=N)NCCCc1c[nH]cn1
R = N=C(N)NCCCCNC(=N)NCCCc1c[nH]cn1
S = Cc1nc(N)sc1CCCNC(=N)NCCCCCCCCNC(=N)N
Exam item: list the entries in increasing order of Kb. The response must list the labels following the requested ordering.
Marked response: S, R, Q, P

---

# test-target: gpH2R (atrium) (Cavia porcellus)
# Sequence (P47747 whole entry): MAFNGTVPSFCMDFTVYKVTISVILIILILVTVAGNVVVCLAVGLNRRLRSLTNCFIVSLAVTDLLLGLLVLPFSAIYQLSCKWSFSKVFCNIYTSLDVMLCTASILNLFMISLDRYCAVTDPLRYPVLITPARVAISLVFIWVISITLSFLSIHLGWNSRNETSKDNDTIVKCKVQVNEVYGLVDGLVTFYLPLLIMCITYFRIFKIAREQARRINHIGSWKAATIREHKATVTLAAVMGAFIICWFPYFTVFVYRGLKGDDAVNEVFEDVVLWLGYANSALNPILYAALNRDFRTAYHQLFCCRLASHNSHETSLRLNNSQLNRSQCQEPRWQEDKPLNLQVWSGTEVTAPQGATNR
# measurement-protocol: Organ bath study on isolated guinea pig right atrium
quantity-name: EC50 (nM)

Below: 2 compounds and their reported EC50.
{"smiles-notation": "N=C(NCCCCNC(N)=O)NCCCc1c[nH]cn1", "EC50 / nM": 288}
{"smiles-notation": "N=C(N)NCCCCCCCCCCCCNC(=N)NCCCc1c[nH]cn1", "EC50 / nM": 56.2}

A = N=C(N)NCCCCNC(=N)NCCCc1c[nH]cn1
B = N=C(N)NCCCCCCCCNC(=N)NCCCc1c[nH]cn1
Exam item: Pick one: A or B . Which one has the lower reported EC50? State your choice using its label.
Marked response: B

Data credit: paper PMC6401531
